test: Plasma level and brain uptake following intraperitoneal and nasal administration; assay type: in vivo, male ddY mice; conditions: male, ddY, mouse, ip, 1 mg
Peptide text beside a SMILES is read from it.
parameter: AUC(0-t) (ng·h/mL)
Give bare numbers, in ng·h/mL.

Can you share its AUC(0-t)? I mean this compound: CC[C@H](C)[C@H](NC(=O)[C@H](CCSC)NC(=O)[C@H](CCCNC(=N)N)NC(=O)[C@H](Cc1ccc(O)cc1)NC(=O)[C@H](C)NC(=O)[C@H](CCC(N)=O)NC(=O)CNC(=O)[C@H](CCCCN)NC(=O)[C@@H](N)CO)C(=O)O [ANA‐TA9] (H-SKGQAYRMI-OH)
193

The measurements presented in this section are drawn from paper PMC8012241.
